# System: HEK293
# protocol-description: cells
# Type: functional
# assay-context: Homo sapiens, ATCC CRL1573, HEK293; ASSAY_TEST Inhibition of Cell Viability; detection method Resazurin; Fluorescence (ex560/em590); MEDIA DMEM with 10% FBS; plate type 384well; TC; CORNING #3712; time 18 hr
Below is a list of entries, each paired with its recorded CC50 value.
Reply with just the number (in µg/mL).

[
  {
    "compound": "CC1CN(S(=O)(=O)c2ccc([N+](=O)[O-])cc2)N(C(=O)OC(C)(C)C)C1=O (stereo not given)",
    "system-under-test": "HEK293",
    "unit-text": "µg/mL",
    "CC50": 6.8
  }
]

The record that follows has no CC50 shown yet.
[ask] Reported CC50, compound CC1CN(S(=O)(=O)c2ccc([N+](=O)[O-])cc2)N(C(=O)OC(C)(C)C)C1O (stereo not given) : ____
[reply] 6.19

###

Recorded CC50, one value per entry.
# Tested on: HEK293
# protocol-description: cells
# Type: functional
# assay-context: Homo sapiens, ATCC CRL1573, HEK293; ASSAY_TEST Inhibition of Cell Viability; detection method Resazurin; Fluorescence (ex560/em590); MEDIA DMEM with 10% FBS; plate type 384well; TC; CORNING #3712; time 18 hr

Recorded results for 2 compounds are shown here.
[
  {
    "compound": "O=C(OCc1ccccc1)N1CC(Cc2ccccc2)C(O)O1 (stereo not drawn)",
    "CC50": "> 32 µg/mL"
  },
  {
    "compound": "CCCCCCCC1CN(C(=O)OCc2ccccc2)OC1O (stereo not drawn)",
    "CC50": "> 32 µg/mL"
  }
]

Consider now this further compound.
[ask] Value wanted: CC50 (HEK293) of entry CC1CN(C(=O)OCc2ccccc2)OC1O (stereo not drawn)
[reply] > 32 µg/mL

From: ChEMBL document CHEMBL4513145
